- System: Escherichia coli ED1a
- Protocol Summary: growth AUC relative to DMSO control (median of replicates) (fraction); higher = more growth (less inhibition), active = hit call of the paper
- Measurement Setup: 20 µM; 24 h
For each record, write down the corresponding growth AUC.
Numbers only.

Known growth AUC results, listed for orientation:
# Compound, growth AUC
measured = [
    ("CC(Oc1ccc(Oc2ccc(Cl)cc2Cl)cc1)C(=O)O (racemic)", 0.974),
    ("ClC1=C(Cl)C2(Cl)C3C4C=CC(C4)C3C1(Cl)C2(Cl)Cl (configuration not stated)", 0.996),
    ("CCS(=O)c1c(C#N)nn(-c2c(Cl)cc(C(F)(F)F)cc2Cl)c1N (configuration not stated)", 0.988),
    ("CCCCN(CCCC)SN(C)C(=O)Oc1cccc2c1OC(C)(C)C2", 0.972),
    ("CC(=O)CC(c1ccco1)c1c(O)c2ccccc2oc1=O (configuration not stated)", 0.994),
    ("Nc1ccc(Cl)cc1", 1.02),
    ("O=C(NC(=O)c1c(F)cccc1F)Nc1cc(Cl)c(OC(F)(F)C(F)C(F)(F)F)cc1Cl (configuration not stated)", 0.996),
    ("CS(=O)(=O)NC(=O)c1cc(Oc2ccc(C(F)(F)F)cc2Cl)ccc1[N+](=O)[O-]", 0.971),
    ("COC(=O)C(C)N(C(=O)c1ccco1)c1c(C)cccc1C (configuration not stated)", 0.971),
    ("CNC(=O)Oc1cccc2c1OC(C)(C)O2", 1),
]

For every listed record, write down its growth AUC.
1. CN(C)C(=O)Nc1ccc(Cl)cc1
2. CC(C)=CC1C(C(=O)OCc2cccc(Oc3ccccc3)c2)C1(C)C (mixture of isomers)
3. Cc1c(N)cccc1N
4. O=S(=O)(c1ccccc1)c1ccccc1
5. N#Cc1nn(-c2c(Cl)cc(C(F)(F)F)cc2Cl)c(N)c1C(F)(F)F

1. 1.01
2. 0.975
3. 0.995
4. 0.988
5. 0.986
